Known IC50 of a selection of molecules
Test system: LoVo
Test: Cytotoxicity assay (SRB), LoVo
Format: cell-based
Conditions: Homo sapiens, LoVo, 72 h, LoVo cells, SRB, three days; read-out: In Vitro Cellular Activity IC50 LOVO
assay endpoint: IC50 (µM)

>  <molecule>
O=C1NC(=O)c2ccc(-n3cccc3)cc2/C1=C/Nc1ccc(CN2CCCCC2)cc1 [Example 74]

>  <target system>
LoVo

>  <assay endpoint>
IC50

>  <limit operator>
=

>  <measurement>
2.4

$$$$
>  <molecule>
CN(C)C(=O)c1ccc2c(c1)/C(=C/Nc1ccc(CN3CCCCC3)cc1)C(=O)NC2=O [Example 66]

>  <target system>
LoVo

>  <assay endpoint>
IC50

>  <limit operator>
=

>  <measurement>
4.2

$$$$
>  <molecule>
C#CC(=O)Nc1ccc(CN/C=C2\C(=O)NC(=O)c3ccc(I)cc32)cc1O [Example 340]

>  <target system>
LoVo

>  <assay endpoint>
IC50

>  <limit operator>
=

>  <measurement>
1.4

$$$$
>  <molecule>
O=C1NCc2ccccc2C1=CNc1ccc(CN2CCCCC2)cc1 [Example 162]

>  <target system>
LoVo

>  <assay endpoint>
IC50

>  <limit operator>
=

>  <measurement>
9.2

$$$$
>  <molecule>
CN(C)CCOc1ccc(N/C=C2\C(=O)NC(=O)c3ccc(Br)cc32)cc1 [Example 258]

>  <target system>
LoVo

>  <assay endpoint>
IC50

>  <limit operator>
=

>  <measurement>
5.3

$$$$
>  <molecule>
O=C1NC(=O)c2ccc(-c3ccco3)cc2C1=CNc1ccc(CN2CCCC2)cc1 [Example 169]

>  <target system>
LoVo

>  <assay endpoint>
IC50

>  <limit operator>
=

>  <measurement>
5.2

$$$$
>  <molecule>
N#Cc1ccc2c(c1)/C(=C/Nc1ccc(CN3CCCCC3)cc1)C(=O)NC2=O [Example 110]

>  <target system>
LoVo

>  <assay endpoint>
IC50

>  <limit operator>
=

>  <measurement>
2.5

$$$$
>  <molecule>
COc1ccc(-c2ccc3c(c2)/C(=C/Nc2ccc(CN4CCCCC4)cc2)C(=O)NC3=O)cc1 [Example 116]

>  <target system>
LoVo

>  <assay endpoint>
IC50

>  <limit operator>
=

>  <measurement>
2.8

$$$$
>  <molecule>
COc1cc(CN/C=C2\C(=O)NC(=O)c3ccc(Br)cc32)ccc1O [Example 28]

>  <target system>
LoVo

>  <assay endpoint>
IC50

>  <limit operator>
>

>  <measurement>
50

$$$$
>  <molecule>
CN1CCN(c2ccc(N/C=C3\C(=O)NC(=O)c4ccc(-c5ccoc5)cc43)cn2)CC1 [Example 249]

>  <target system>
LoVo

>  <assay endpoint>
IC50

>  <limit operator>
=

>  <measurement>
2.4

$$$$
>  <molecule>
O=C1NC(=O)c2ccc(Br)cc2/C1=C/c1cc(Br)c(O)c(Br)c1 [Example 94]

>  <target system>
LoVo

>  <assay endpoint>
IC50

>  <limit operator>
=

>  <measurement>
6.4

$$$$
>  <molecule>
C[C@@H]1CN(c2ccc(N/C=C3\C(=O)NC(=O)c4ccc(-c5ccc(F)cc5)cc43)cc2F)C[C@H](C)N1 [Example 326]

>  <target system>
LoVo

>  <assay endpoint>
IC50

>  <limit operator>
=

>  <measurement>
3.7

$$$$
>  <molecule>
CC1CN(C)[C@H](C)CN1c1ccc(N/C=C2\C(=O)NC(=O)c3ccc(I)cc32)cc1 (stereo in doubt) [Example 233]

>  <target system>
LoVo

>  <assay endpoint>
IC50

>  <limit operator>
=

>  <measurement>
4.4

$$$$
>  <molecule>
C[C@@H]1CN(c2ccc(N/C=C3\C(=O)NC(=O)c4ccc(I)cc43)cc2)C[C@H](C)N1C [Example 234]

>  <target system>
LoVo

>  <assay endpoint>
IC50

>  <limit operator>
=

>  <measurement>
3.4

$$$$
>  <molecule>
CN(C)CCN1CCN(/C=C2\C(=O)NC(=O)c3ccc(Br)cc32)CC1 [Example 106]

>  <target system>
LoVo

>  <assay endpoint>
IC50

>  <limit operator>
>

>  <measurement>
50

$$$$
>  <molecule>
O=C1NC(=O)c2ccc(Br)cc2/C1=C/Nc1ccc(CN2CCCCC2)cc1 [Example 24]

>  <target system>
LoVo

>  <assay endpoint>
IC50

>  <limit operator>
=

>  <measurement>
6

$$$$
>  <molecule>
CC(=O)Nc1ccc(CN/C=C2\C(=O)NC(=O)c3ccc(Br)cc32)cc1O [Example 142]

>  <target system>
LoVo

>  <assay endpoint>
IC50

>  <limit operator>
=

>  <measurement>
2

$$$$
